// data source = PubChem BioAssay AID1851

Molecular target: Cytochrome P450 2C19 (Homo sapiens) (UniProt P33261)
Sequence (P33261 whole entry, looked up): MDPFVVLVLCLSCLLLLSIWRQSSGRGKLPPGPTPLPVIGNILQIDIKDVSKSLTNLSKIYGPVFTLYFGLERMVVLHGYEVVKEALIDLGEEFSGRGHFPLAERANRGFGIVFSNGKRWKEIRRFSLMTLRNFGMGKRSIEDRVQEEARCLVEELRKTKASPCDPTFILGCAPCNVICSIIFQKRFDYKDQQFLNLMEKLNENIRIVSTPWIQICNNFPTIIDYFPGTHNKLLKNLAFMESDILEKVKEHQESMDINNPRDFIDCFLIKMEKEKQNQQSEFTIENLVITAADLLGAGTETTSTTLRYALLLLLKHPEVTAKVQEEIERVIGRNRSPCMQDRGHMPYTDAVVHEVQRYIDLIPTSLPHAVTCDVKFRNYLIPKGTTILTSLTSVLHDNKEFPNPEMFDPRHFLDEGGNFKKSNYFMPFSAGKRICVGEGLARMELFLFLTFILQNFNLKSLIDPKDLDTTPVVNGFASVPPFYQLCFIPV
Assay: Cytochrome panel assay with activity outcomes
Conditions: recombinant CYP, pro-luciferin dealkylation, luminescence, p450-cyp2c19; series mostly up to 57.1 µM
Description: The P450 gene superfamily is involved in the metabolism and clearance of xenobiotics. This assay used various human CYP P450 isozymes to measure the dealkylation of various pro-luciferin substrates to luciferin. The luciferin is then measured by luminescence after the addition of a luciferase detection reagent. […] Inhibitors and some substrates limit the production of luciferin, and decrease measured luminescence. […] 8, Detection, 1 sec, ViewLux luminescent read […]
The whole screen tested about 16,000 compounds, of which about 5,800 (36%) were called active. Inconclusive results (about 23%) are left out. Calls follow the shape of the dose curve; as a rule, active = well fitted curve in the direction sought with a large enough effect; inconclusive = small, poorly fitted or top-dose-only effect, or effect the other way; inactive = no such curve, though single readings can be large or run the other way. This is one part of the list.
Reply using exactly one outcome from yes (active), no (inactive)

{"COMPOUND": "Cc1ccc(CS(=O)(=O)CCC(=O)NCCCOC(C)C)cc1", "CLASS NAME": "no"}

(Q) // param item: O=C(Nc1cccc(F)c1)N1CCC2(CC1)CCN(C(=O)c1csnn1)CC2 ; yields the recorded call
(A) no

(Q) Lab log entry: Cc1ccc2cc3cc(C(=O)N4CCCCC4C)oc3nc2c1 (stereo unspecified) — outcome as called in the assay?
(A) yes

(Q) Please state the recorded outcome for this compound: CCOc1ccc(NC(=O)c2oc3ccccc3c2NC(=O)CC)cc1
(A) yes

(Q) Could you please tell me the result logged for CCOC(=O)Nc1ccc2c(c1)OCO2 in this assay?
(A) yes

(Q) Per the assay record, what outcome was assigned to COc1ccc(C)cc1NC(=O)c1cc2cc3ccc(C)cc3nc2o1 ?
(A) no

(Q) # fetch the recorded call for O=C(OC(C(=O)O)C(OC(=O)c1ccccc1)C(=O)NCc1ccccc1)c1ccccc1 (stereo unspecified) here
(A) no

====

biological target: Cytochrome P450 2C19 (Homo sapiens); experiment: Cytochrome panel assay with activity outcomes; details: recombinant CYP, pro-luciferin dealkylation, luminescence, p450-cyp2c19; series mostly up to 57.1 µM
Screen size: about 16,000 compounds; about 5,800 (36%) were called active. Inconclusive results (about 23%) are left out. Calls come from the whole dose curve; as a rule, active = well fitted curve in the direction sought with a large enough effect; inconclusive = small, poorly fitted or top-dose-only effect, or effect the other way; inactive = no such curve, though single readings can be large or run the other way. This is one part of the list.
Field 'call' accepts active, inactive

See these solved cases before continuing.
{"CHEMICAL STRUCTURE": "CCOC(=O)Cn1c(-c2ccccc2)nc2ccccc2c1=O", "CLASS NAME": "active"}
{"CHEMICAL STRUCTURE": "CN(C)c1ccc(-c2cc(NCc3ccccc3)ncn2)cc1", "CLASS NAME": "inactive"}
{"CHEMICAL STRUCTURE": "C#CC[N+](CC)(CC)CC#Cc1cccc(Cl)c1", "CLASS NAME": "inactive"}
{"CHEMICAL STRUCTURE": "O=C(O)Cn1c(-c2ccccc2)nc2ccccc21", "CLASS NAME": "inactive"}
{"CHEMICAL STRUCTURE": "O=C(COc1ccc(Cl)cc1Cl)N/N=C/CCc1ccccc1", "CLASS NAME": "active"}

(Q) What did this assay record as the result for Cn1cccc1C(=O)C(=O)Nc1cccc(Cl)c1Cl ?
(A) active

(Q) Any idea what this test logged for Cc1cnc(CNc2cc(-c3cccc(C#N)c3)ncn2)cn1 ?
(A) inactive

(Q) Identify the outcome logged in this assay for the compound shown: Cn1cccc1C(=O)N1CCC2(CC1)CN(C(=O)Nc1ccccc1)C2
(A) inactive

(Q) What did this assay record as the result for CN(C)C(=O)c1ccc(-c2cc(NCc3ccccc3)ncn2)cc1 ?
(A) inactive

(Q) // param item: N#Cc1cccc(-c2nc3cnc(N4CCOCC4)nc3n(C[C@H]3CCCO3)c2=O)c1 ; yields the recorded call
(A) inactive

(Q) Test call for this compound, please: Cn1cccc1C(=O)N1CCC2(CCN(C(=O)Nc3ccccc3)CC2)CC1
(A) inactive

(Q) # fetch the recorded call for NCc1ccc(S(N)(=O)=O)cc1 here
(A) inactive
